// provenance: patent US20070128217A1

# System: antibodies in sera from SARS patients (sera 1a, 1b, 2, 6, 37, 62, London, SARS-yellow, SARS-green)
# Assay type: binding, human
measured-endpoint: Binding of serum 2 to linear peptides of protein N of SARS-CoV Urbani
Answer with a number only.

The measured Binding of serum 2 to linear peptides of protein N of SARS-CoV Urbani associated with KKKKTDEAQPLPQRQ reads 0.3

Short answer for QIGYYRRATRRVRGG : Binding of serum 2 to linear peptides of protein N of SARS-CoV Urbani was 0.2

Lab note: ELSPRWYFYYLGTGP gave Binding of serum 2 to linear peptides of protein N of SARS-CoV Urbani of 0.3

Entry DSTDNNQNGGRNGAR , Binding of serum 2 to linear peptides of protein N of SARS-CoV Urbani reported as 0.2

The measured Binding of serum 2 to linear peptides of protein N of SARS-CoV Urbani associated with ITFGGPTDSTDNNQN reads 0.1

The sequence listed as YYRRATRRVRGGDGK shows Binding of serum 2 to linear peptides of protein N of SARS-CoV Urbani equal to 0.3

For reference, reported Binding of serum 2 to linear peptides of protein N of SARS-CoV Urbani for TALTQHGKEELRFPR stands at 0.2

Input TGPEASLPYGANKEG . Output Binding of serum 2 to linear peptides of protein N of SARS-CoV Urbani: 0.3

Item: NTPKDHIGTRNPNNN | Binding of serum 2 to linear peptides of protein N of SARS-CoV Urbani: 0.3

Looking up GLPNNTASWFTALTQ , I see its Binding of serum 2 to linear peptides of protein N of SARS-CoV Urbani listed as 0.2

// sample PINTNSGPDDQIGYY , its Binding of serum 2 to linear peptides of protein N of SARS-CoV Urbani was 0.2

Sure, the documented Binding of serum 2 to linear peptides of protein N of SARS-CoV Urbani for TASWFTALTQHGKEE is 0.1

In plain terms, SRQLQNSMSGASADS has a documented Binding of serum 2 to linear peptides of protein N of SARS-CoV Urbani of 0.2

Form: sequence = QDLIRQGTDYKHWPQ ; Binding of serum 2 to linear peptides of protein N of SARS-CoV Urbani = 0.2

Item: RNPNNNAATVLQLPQ | Binding of serum 2 to linear peptides of protein N of SARS-CoV Urbani: 0.3

Measured Binding of serum 2 to linear peptides of protein N of SARS-CoV Urbani, NVILLNKHIDAYKTF : 0.2

The reported value for RNGARPKQRRPQGLP in terms of Binding of serum 2 to linear peptides of protein N of SARS-CoV Urbani is 0.2

* * *

# Test system: antibodies in sera from SARS patients (sera 1a, 1b, 2, 6, 37, 62, London, SARS-yellow, SARS-green)
# Assay type: binding, human
Binarize Binding of serum 1b to linear peptides of protein X2 at 0.5; below is satisfied, at or above is not satisfied.

Strictly below 0.5 in Binding of serum 1b to linear peptides of protein X2? WIQFMMSRRRLLACL satisfied

Does the reported Binding of serum 1b to linear peptides of protein X2 of the following sequence sit strictly below 0.5? TSLSLHKLLQTLVLK not satisfied

Please state whether Binding of serum 1b to linear peptides of protein X2 is below 0.5 for LSLHKLLQTLVLKML satisfied

Identify whether the sequence ISPKFTTSLSLHKLL records Binding of serum 1b to linear peptides of protein X2 below 0.5. satisfied

Please determine if THRMCKYTQSTALQE is below 0.5 in terms of Binding of serum 1b to linear peptides of protein X2. not satisfied

Regarding MAISPKFTTSLSLHK , kindly confirm whether its Binding of serum 1b to linear peptides of protein X2 is beneath 0.5. not satisfied

Item TALQELLIQQWIQFM : Binding of serum 1b to linear peptides of protein X2 beneath 0.5, strictly? not satisfied

In plain terms, does ITMTTVYHITVSQIQ come in under 0.5 for Binding of serum 1b to linear peptides of protein X2? satisfied

Given QELLIQQWIQFMMSR , is recorded Binding of serum 1b to linear peptides of protein X2 strictly lower than 0.5? satisfied
